System: MS2 coat protein
Assay: apparent KD of MS2 coat protein; designed switch direction (-1 OFF switch, 1 ON switch): -1; higher = weaker reporter binding
Conditions: input ligand: none
measured-parameter: apparent KD of MS2 coat protein
State the result as a value with its unit after it.

Worked set:
primary-sequence: GAGAGAGCCAUAGGAUAUGCCCGCCCGCUUGCGGCAGAAGGAUGUUGACAUGAGGAUCACCCAUGUGGAUCGCCCAUGUUUGUG [All by luck] (Eterna round: R96, puzzle: Exclusion NG 1)
result: 286 nM

primary-sequence: ACGCAUUGCCUUUGGUAGUGCGUUACAUGAGGAUCACCCAUGUAGGAUAUGGUAGGCUUUGCUUACCAGAAGGACAUGAUAAUU [JL ENG3 1.02] (Eterna round: R96, puzzle: Exclusion NG 3)
result: 37.4 nM

primary-sequence: AAAUAGCUUGAGGAUAUUGGACUGGAUUCAGUGCGAGAAGGCAAGACAUGAGGAUCACCCAUGUUGUGUUGGGA [EX6 #10] (Eterna round: R97, puzzle: Exclusion 6)
result: 91.6 nM

primary-sequence: AACACUGUAGGAUAUCAUGAACUGGACUUGAGGAUCACCCAAGUGUAUCCUGGAGUGCCGUGAGAAGGACGGAAAA [Erzalelaan] (Eterna round: R97, puzzle: Exclusion 5)
result: 46.9 nM

Identify measured apparent KD of MS2 coat protein corresponding to UUUAACAAGCCAGAUCCUCACAUGAGGAUCACCCAUGUGCUCGUCUGAUUUUGUACUAUCAUGUGAGUGAUAGUGUU [Level Boss var2-06] (Eterna round: R96, puzzle: Sensor v3, turn-off variant 1)
205 nM

Provide measured apparent KD of MS2 coat protein value, entry: GCCGGCUAUGUAGGAUAUGGGCCUGAUACGGGUCUAGAAGGACAUGAGGAUCACCCAUGUAUCGUGCGCUGGUGGCUUGCCGGU [-30, -30 kcal and 19% A] (Eterna round: R96, puzzle: Exclusion NG 1)
141 nM

Answer with the recorded apparent KD of MS2 coat protein of CUGAACCCGGUAGGAUAUAUUGUGGGCAAACAUGGAACAACAUGAGGAUCACCCAUGUAAUUUAGGUAGAAGGGCCAAAAGAUU [Excl-NG2-LRO07] (Eterna round: R96, puzzle: Exclusion NG 2) only.
74.2 nM

Indicate the recorded apparent KD of MS2 coat protein value for this sequence: CUAGCGAAUGUAGGAUAUCGGACUGUUUCAGUCUGAGAAGGACAUGAGGAUCACCCAUGUAUAGCUACGUGAGUAGCUCGCUAG [JL ENG1 3.91] (Eterna round: R96, puzzle: Exclusion NG 1)
17.1 nM

Note down apparent KD of MS2 coat protein recorded for GUCAGACGAGGAUAUAGAUUUAGAUACAUGAGGAUCACCCAUGUAUAGAUGUAUUUAGAUUUAGAAGGCGUCUGAC [E5/13-A3] (Eterna round: R97, puzzle: Exclusion 5)
201 nM

Quick one: give measured apparent KD of MS2 coat protein for CACCGUUACAGAGGAUAUGGUACAUGAGGAUCACCCAUGUAAUAAAUGAGAAUUUCGGAUGUAUUCCAGAAGGCUGAAAUCGGC [Ostricism 64 - Jieux - Exclusion NG 2] (Eterna round: R96, puzzle: Exclusion NG 2)
46.8 nM

Tell me its apparent KD of MS2 coat protein given GGAUAAAACUGAGGAUAUGCGUAUAGAUAGAGAGCAGAAGGCAGACAUGAGGAUCACCCAUGUGAGUUCUCGAUAAGAAACACG [Prohibition 58 - Jieux - Exclusion NG 1] (Eterna round: R96, puzzle: Exclusion NG 1) as the entry.
35.2 nM

Identify measured apparent KD of MS2 coat protein corresponding to GAUUCAUAUGACUUUCUAUACAUGAGGAUCACCCAUGUUUGUUUUUUUUGUUUUUCGCUUUUUAGUCGUCUUAUUAU [Gravy 3] (Eterna round: R97, puzzle: Sensor, turn-off variant 1)
19 nM

Source: the supplement of paper PMC9170038
